Data credit: patent US20240343803A1

Listed binders paired with reported Kd
- STUDY SYSTEM: T1, Fusion protein of extracellular domain of human TIGIT and His-tag (human TIGIT ECD-his) (human)
- T1 chain: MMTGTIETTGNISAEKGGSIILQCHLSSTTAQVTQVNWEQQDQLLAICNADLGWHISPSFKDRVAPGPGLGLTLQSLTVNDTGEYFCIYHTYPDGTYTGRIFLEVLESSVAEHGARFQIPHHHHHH
- METHOD: BIAcore
Give a bare numeral; the unit nM is implied.

Past entries and their recorded results:
* TIGIT-005-H2L1a (antibody, V domains shown, Humanized anti-TIGIT antibody with NG-site mutation in VL) VH: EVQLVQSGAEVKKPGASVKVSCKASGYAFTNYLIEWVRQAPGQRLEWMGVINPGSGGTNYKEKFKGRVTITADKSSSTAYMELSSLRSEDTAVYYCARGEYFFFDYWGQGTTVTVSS VL: DIVMTQSPDSLAVSLGERATINCKASQHVSQGVAWYQHKPGQSPKLLIYSASYRYTGVPDRFSGSGSGTDFTLTISSLQAEDVAVYYCQQHYNTPHTFGGGTKVEIK | 3.71
* TIGIT-006-H2L3 (antibody, V domains shown, Humanized anti-TIGIT antibody) VH: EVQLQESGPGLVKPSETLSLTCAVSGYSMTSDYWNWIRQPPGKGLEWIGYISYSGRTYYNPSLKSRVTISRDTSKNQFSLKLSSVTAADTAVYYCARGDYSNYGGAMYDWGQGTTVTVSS VL: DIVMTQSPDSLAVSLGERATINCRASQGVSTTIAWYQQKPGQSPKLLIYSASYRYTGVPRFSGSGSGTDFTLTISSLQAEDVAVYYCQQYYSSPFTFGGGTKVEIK | 0.515

Query binder follows.
Return Kd (reported value) for this binder: TIGIT-005-H2L1c (antibody, V domains shown, Humanized anti-TIGIT antibody with NG-site mutation in VL) VH: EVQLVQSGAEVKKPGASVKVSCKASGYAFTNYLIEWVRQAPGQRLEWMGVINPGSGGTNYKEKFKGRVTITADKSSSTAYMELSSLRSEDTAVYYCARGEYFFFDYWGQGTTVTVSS VL: DIVMTQSPDSLAVSLGERATINCKASQHVSDGVAWYQHKPGQSPKLLIYSASYRYTGVPDRFSGSGSGTDFTLTISSLQAEDVAVYYCQQHYNTPHTFGGGTKVEIK
0.184
